# assay-procedure: Selectivity index, ratio of CC50 for golden hamster BHK21 cells to EC50 for Yellow fever virus 17D
# Assay type: toxicity
# measurement-parameters: read-out: Ratio CC50/EC50
endpoint: selectivity ratio
Lab note: record the figure alone, no unit after it.

Query: Name the reported selectivity ratio value associated with the molecule Cc1cccc(C2CC(c3ccc(Oc4ccccc4)cc3)=NN2c2ccc(S(N)(=O)=O)cc2)c1 (centres undefined)
Result: 5

Query: Name the reported selectivity ratio value associated with the molecule Cc1ccc(C2CC(c3ccc(OCc4ccccc4)cc3)=NN2c2ccc(S(N)(=O)=O)cc2)cc1 (centres undefined)
Result: 20

Query: Name the reported selectivity ratio value associated with the molecule NS(=O)(=O)c1ccc(N2N=C(c3ccc(Oc4ccccc4)cc3)CC2c2ccccc2F)cc1 (centres undefined)
Result: 17.9

Query: Name the reported selectivity ratio value associated with the molecule NS(=O)(=O)c1ccc(N2N=C(c3ccc(Oc4ccccc4)cc3)CC2c2cccc(Cl)c2)cc1 (centres undefined)
Result: 4.5

Query: Name the reported selectivity ratio value associated with the molecule NS(=O)(=O)c1ccc(N2N=C(c3ccc(Oc4ccccc4)cc3)CC2c2ccc(Cl)cc2)cc1 (centres undefined)
Result: 4.2

Query: Name the reported selectivity ratio value associated with the molecule NS(=O)(=O)c1ccc(N2N=C(c3ccc(Oc4ccccc4)cc3)CC2c2ccccc2Cl)cc1 (centres undefined)
Result: 5

Query: Name the reported selectivity ratio value associated with the molecule NS(=O)(=O)c1ccc(N2N=C(c3ccc(OCc4ccccc4)cc3)CC2c2cccc(F)c2)cc1 (centres undefined)
Result: 5.5

Query: Name the reported selectivity ratio value associated with the molecule NS(=O)(=O)c1ccc(N2N=C(c3ccccc3)CC2c2cccc(Cl)c2)cc1 (centres undefined)
Result: 3.6

Query: Name the reported selectivity ratio value associated with the molecule NS(=O)(=O)c1ccc(N2N=C(c3ccc(OCc4ccccc4)cc3)CC2c2ccccc2)cc1 (centres undefined)
Result: 36.4

----------
# assay-procedure: Cytotoxicity against bovine MDBK cells assessed as decrease in cell viability after 72 hrs by MTT assay
# Assay type: cell-based, Bos taurus
# measurement-parameters: cattle
For each of the molecules below, state its CC50 at 72 h.
Report the figure in µM without appending any unit label.

Query: Name the reported CC50 at 72 h value associated with the molecule NS(=O)(=O)c1ccc(N2N=C(c3ccccc3)CC2c2ccccc2)cc1 (stereo not given)
Result: 16

Query: Name the reported CC50 at 72 h value associated with the molecule Cc1ccc(C2CC(c3ccc(OCc4ccccc4)cc3)=NN2c2ccc(S(N)(=O)=O)cc2)cc1 (stereo not given)
Result: 80

Query: Name the reported CC50 at 72 h value associated with the molecule NS(=O)(=O)c1ccc(N2N=C(c3ccc(OCc4ccccc4)cc3)CC2c2ccccc2)cc1 (stereo not given)
Result: 72

Query: Name the reported CC50 at 72 h value associated with the molecule NS(=O)(=O)c1ccc(N2N=C(c3ccc(Oc4ccccc4)cc3)CC2c2ccccc2)cc1 (stereo not given)
Result: 5

----------
# assay-procedure: Cytotoxicity against golden hamster BHK21 cells assessed as decrease in cell viability after 72 hrs by MTT assay
# Format: cell-based, Mesocricetus auratus, BHK-21
endpoint: CC50 at 72 h

Query: Name the reported CC50 at 72 h value associated with the compound NS(=O)(=O)c1ccc(N2N=C(c3ccc(Oc4ccccc4)cc3)CC2c2ccccc2Cl)cc1 (stereo unspecified)
Result: 8 to 9 µM

Query: Name the reported CC50 at 72 h value associated with the compound NS(=O)(=O)c1ccc(N2N=C(c3ccc(Oc4ccccc4)cc3)CC2c2ccc(Cl)cc2)cc1 (stereo unspecified)
Result: 7 to 8 µM

Query: Name the reported CC50 at 72 h value associated with the compound NS(=O)(=O)c1ccc(N2N=C(c3ccc(OCc4ccccc4)cc3)CC2c2ccc(F)cc2)cc1 (stereo unspecified)
Result: 60 to 69 µM

Query: Name the reported CC50 at 72 h value associated with the compound NS(=O)(=O)c1ccc(N2N=C(c3ccccc3)CC2c2ccccc2F)cc1 (stereo unspecified)
Result: 21 µM

Query: Name the reported CC50 at 72 h value associated with the compound NS(=O)(=O)c1ccc(N2N=C(c3ccccc3)CC2c2cccc(F)c2)cc1 (stereo unspecified)
Result: 15 µM

Query: Name the reported CC50 at 72 h value associated with the compound Cc1ccc(C2CC(c3ccc(OCc4ccccc4)cc3)=NN2c2ccc(S(N)(=O)=O)cc2)cc1 (stereo unspecified)
Result: 32 to 36 µM

Query: Name the reported CC50 at 72 h value associated with the compound Cc1cccc(C2CC(c3ccccc3)=NN2c2ccc(S(N)(=O)=O)cc2)c1 (stereo unspecified)
Result: 25 µM

Query: Name the reported CC50 at 72 h value associated with the compound NS(=O)(=O)c1ccc(N2N=C(c3ccccc3)CC2c2ccccc2Cl)cc1 (stereo unspecified)
Result: 13 to 14 µM

Query: Name the reported CC50 at 72 h value associated with the compound NS(=O)(=O)c1ccc(N2N=C(c3ccc(OCc4ccccc4)cc3)CC2c2ccc(Cl)cc2)cc1 (stereo unspecified)
Result: 15 to 16 µM

Query: Name the reported CC50 at 72 h value associated with the compound NS(=O)(=O)c1ccc(N2N=C(c3ccc(Oc4ccccc4)cc3)CC2c2cccc(Cl)c2)cc1 (stereo unspecified)
Result: 9 to 10 µM

Query: Name the reported CC50 at 72 h value associated with the compound NS(=O)(=O)c1ccc(N2N=C(c3ccc(OCc4ccccc4)cc3)CC2c2cccc(F)c2)cc1 (stereo unspecified)
Result: 9 to 11 µM

Query: Name the reported CC50 at 72 h value associated with the compound NS(=O)(=O)c1ccc(N2N=C(c3ccccc3)CC2c2ccc(F)cc2)cc1 (stereo unspecified)
Result: 12 to 13 µM

Query: Name the reported CC50 at 72 h value associated with the compound NS(=O)(=O)c1ccc(N2N=C(c3ccccc3)CC2c2ccccc2)cc1 (stereo unspecified)
Result: 15 µM

Query: Name the reported CC50 at 72 h value associated with the compound Cc1ccccc1C1CC(c2ccc(Oc3ccccc3)cc2)=NN1c1ccc(S(N)(=O)=O)cc1 (stereo unspecified)
Result: 7 to 8 µM

Query: Name the reported CC50 at 72 h value associated with the compound NS(=O)(=O)c1ccc(N2N=C(c3ccc(Oc4ccccc4)cc3)CC2c2ccccc2)cc1 (stereo unspecified)
Result: 11 to 13 µM

Query: Name the reported CC50 at 72 h value associated with the compound NS(=O)(=O)c1ccc(N2N=C(c3ccccc3)CC2c2ccc(Cl)cc2)cc1 (stereo unspecified)
Result: 32 µM

Query: Name the reported CC50 at 72 h value associated with the compound Cc1ccccc1C1CC(c2ccccc2)=NN1c1ccc(S(N)(=O)=O)cc1 (stereo unspecified)
Result: 14 µM

Query: Name the reported CC50 at 72 h value associated with the compound Cc1ccc(C2CC(c3ccc(Oc4ccccc4)cc3)=NN2c2ccc(S(N)(=O)=O)cc2)cc1 (stereo unspecified)
Result: 8 to 9 µM

Query: Name the reported CC50 at 72 h value associated with the compound NS(=O)(=O)c1ccc(N2N=C(c3ccc(Oc4ccccc4)cc3)CC2c2ccccc2F)cc1 (stereo unspecified)
Result: 32 to 34 µM

Query: Name the reported CC50 at 72 h value associated with the compound NS(=O)(=O)c1ccc(N2N=C(c3ccc(OCc4ccccc4)cc3)CC2c2cccc(Cl)c2)cc1 (stereo unspecified)
Result: 45 to 47 µM

Query: Name the reported CC50 at 72 h value associated with the compound NS(=O)(=O)c1ccc(N2N=C(c3ccc(Oc4ccccc4)cc3)CC2c2ccc(F)cc2)cc1 (stereo unspecified)
Result: 8 to 9 µM

Query: Name the reported CC50 at 72 h value associated with the compound NS(=O)(=O)c1ccc(N2N=C(c3ccc(Oc4ccccc4)cc3)CC2c2cccc(F)c2)cc1 (stereo unspecified)
Result: 10 to 11 µM

Query: Name the reported CC50 at 72 h value associated with the compound O=c1cnn([C@@H]2O[C@H](CO)[C@@H](O)[C@H]2O)c(=O)[nH]1 [6-AZAURIDINE]
Result: > 100 µM

Query: Name the reported CC50 at 72 h value associated with the compound NS(=O)(=O)c1ccc(N2N=C(c3ccc(OCc4ccccc4)cc3)CC2c2ccccc2)cc1 (stereo unspecified)
Result: 80 to 84 µM

Query: Name the reported CC50 at 72 h value associated with the compound Cc1ccccc1C1CC(c2ccc(OCc3ccccc3)cc2)=NN1c1ccc(S(N)(=O)=O)cc1 (stereo unspecified)
Result: 20 to 22 µM

Query: Name the reported CC50 at 72 h value associated with the compound Cc1cccc(C2CC(c3ccc(Oc4ccccc4)cc3)=NN2c2ccc(S(N)(=O)=O)cc2)c1 (stereo unspecified)
Result: 8 to 9 µM

Query: Name the reported CC50 at 72 h value associated with the compound NS(=O)(=O)c1ccc(N2N=C(c3ccc(OCc4ccccc4)cc3)CC2c2ccccc2F)cc1 (stereo unspecified)
Result: 90 to 92 µM

Query: Name the reported CC50 at 72 h value associated with the compound Cc1cccc(C2CC(c3ccc(OCc4ccccc4)cc3)=NN2c2ccc(S(N)(=O)=O)cc2)c1 (stereo unspecified)
Result: 8 to 9 µM

Query: Name the reported CC50 at 72 h value associated with the compound Cc1ccc(C2CC(c3ccccc3)=NN2c2ccc(S(N)(=O)=O)cc2)cc1 (stereo unspecified)
Result: 7 to 8 µM

Query: Name the reported CC50 at 72 h value associated with the compound NS(=O)(=O)c1ccc(N2N=C(c3ccc(OCc4ccccc4)cc3)CC2c2ccccc2Cl)cc1 (stereo unspecified)
Result: 12 µM

Query: Name the reported CC50 at 72 h value associated with the compound NS(=O)(=O)c1ccc(N2N=C(c3ccccc3)CC2c2cccc(Cl)c2)cc1 (stereo unspecified)
Result: 8 to 9 µM
